Collected Ki values appear next to each entry.
target: murine iNOS (Mus musculus, UniProt P29477); construct: made in house; host or cells: E. coli (plasmid pCWiNOS); test: NOS enzyme inhibitory assay (hemoglobin capture), iNOS; format: biochemical; settings: Table 1a; apparent Ki calculated from IC50, Km […]; read-out: calc. Ki iNOS

Field: example entries. Status: answers known.
Nc1cccc(CC2CNCC2NCC(N)Cc2ccccc2)n1 (racemic) [Compound P-17]; 417 µM
Nc1cccc(CC2CNCC2NC2CCN(Cc3ccccc3)C2)n1 (racemic) [Compound P-21]; 286 µM
Cl.Cl.Cl.Nc1cccc(C[C@H]2CN(Cc3ccccc3)C[C@H]2NCCCc2ccccc2)n1 (racemic); 609 µM
Nc1cccc(CC2CNCC2NCC(N)Cc2ccccc2)n1 (racemic) [Compound P-32]; 297 µM
CN(C)CCNC1CNCC1Cc1cccc(N)n1 (racemic) [Compound P-30]; 195 µM
Cl.Cl.Cl.Cl.Nc1cccc(C[C@H]2CNC[C@H]2NC[C@H]2CCCN2)n1; 70 µM
Nc1cccc(CC2CNCC2NC2CCN(Cc3ccccc3)C2)n1 (centres unmarked) [Compound P-39]; 325 µM
Cl.Cl.Cl.Cl.Nc1cccc(C[C@@H]2CNC[C@@H]2NC[C@@H]2CCCN2)n1; 26.4 µM

Exam item: State its Ki: Nc1cccc(C[C@H]2CNC[C@H]2NCCCO)n1 (racemic)
Marked response: 143 µM

Exam item: State its Ki: Nc1cccc(CC2CNCC2NCC(N)Cc2ccccc2)n1 (racemic) [Compound P-16]
Marked response: 299 µM

Exam item: State its Ki: Cl.Cl.Cl.Cl.Nc1cccc(C[C@@H]2CNC[C@@H]2NC[C@H]2CCCN2)n1
Marked response: 42 µM

Exam item: State its Ki: Cl.Cl.Nc1cccc(CC2CNCC2O)n1 (racemic)
Marked response: 25.2 µM

Exam item: State its Ki: Nc1cccc(CC2CNCC2NC2CCN(Cc3ccccc3)C2)n1 (centres unmarked) [Compound P-36]
Marked response: 222 µM

Exam item: State its Ki: CN(C)CCNC1CNCC1Cc1cccc(N)n1 (racemic) [Compound P-15]
Marked response: 308 µM

* * *

pIC50: −log10 of the molar value.
Notes on pIC50 obtained with bovine eNOS (Bos taurus, UniProt P29473).

Field: example entries. Status: answers known.
Nc1cccc(C[C@H]2CNC[C@@H]2NCCNCc2ccccc2)n1 (racemic); < 1.15
Nc1cccc(CC2CNCC2NCC(N)Cc2ccccc2)n1 (racemic) [Compound P-32]; < 2.00
Nc1cccc(CC2CNCC2NCC(N)Cc2ccccc2)n1 (racemic) [Compound P-16]; < 2.00

In the following, a different compound is considered.
Exam item: State its pIC50: Nc1cccc(CC2CNCC2NCC(N)Cc2ccccc2)n1 (racemic) [Compound P-17]
Marked response: < 2.00

* * *

biological target: murine iNOS (Mus musculus); construct: made in house; host or cells: E. coli (plasmid pCWiNOS); assay: NOS enzyme inhibitory assay (hemoglobin capture), iNOS; type: biochemical; conditions: Table 1b; read-out: Ki iNOS
experimental_endpoint: Ki (µM)
Write the number in µM without appending the unit.

Field: example entries. Status: answers known.
Cc1cc(N)nc(C[C@H]2CNC[C@@H]2OCCN)c1.Cl.Cl.Cl (racemic); 8.5
Cc1cc(N)nc(C[C@H]2CNC[C@H]2NCCNCc2ccc(Cl)cc2Cl)c1.Cl.Cl.Cl.Cl (racemic); 7.7
Cc1cc(N)nc(C[C@H]2CNC[C@@H]2NCCNCc2ccc(F)cc2)c1.Cl.Cl.Cl.Cl (racemic); 27.4

Exam item: State its Ki: Cc1cc(N)nc(C[C@H]2CNC[C@H]2NCCNCc2ccc(F)cc2)c1.Cl.Cl.Cl.Cl (racemic)
Marked response: 7.97

Exam item: State its Ki: Cc1cc(N)nc(C[C@H]2CNC[C@H]2N(C)CCNCCc2cccc(F)c2)c1.Cl.Cl.Cl.Cl (racemic)
Marked response: 38.2

Exam item: State its Ki: Cc1cc(N)nc(CC2CNCC2NCC(C)NCc2ccc(Cl)cc2)c1.Cl.Cl.Cl.Cl (racemic)
Marked response: 20.5

Exam item: State its Ki: Cc1cc(N)nc(CC2CNCC2NCCNCc2ccc(Cl)c(Cl)c2)c1.Cl.Cl.Cl.Cl (racemic) [Compound P-65]
Marked response: 23.8

Exam item: State its Ki: Cc1cc(N)nc(C[C@H]2CNC[C@H]2NC[C@H](C)NCc2ccc(Cl)cc2)c1.Cl.Cl.Cl.Cl (racemic)
Marked response: 12.2

* * *

target: murine iNOS (Mus musculus, UniProt P29477); construct: made in house; host or cells: E. coli (plasmid pCWiNOS); assay: NOS enzyme inhibitory assay (hemoglobin capture), iNOS; format: biochemical; conditions: Table 1a; apparent Ki calculated from IC50, Km […]; read-out: calc. Ki iNOS
experimental_endpoint: Ki
Quick note: number first, unit second.

Exam item: State its Ki: Cl.Cl.Cl.Cl.NCCNC1CC(N)CC1Cc1cccc(N)n1 (racemic) [Compound P-44]
Marked response: 51.9 µM

Exam item: State its Ki: Cl.Cl.Cl.Cl.Nc1cccc(C[C@@H]2CNC[C@H]2NC[C@H]2CCCN2)n1
Marked response: 170 µM

Exam item: State its Ki: NCCN1C[C@H](Cc2cccc(N)n2)[C@H](NCCCO)C1 (racemic)
Marked response: 1250 µM
